assay: in vivo; conditions: female, Yorkshire cross, pig, plasma, other: intranasal, 2.2 mg/kg;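 note: grower pigs about 8 weeks old weighing 18.0-22.0 kg, randomized cross-over of both routes separated by a 5-day washout, blood taken via jugular vein catheter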

{"compound": "Cc1c(Nc2ncccc2C(=O)O)cccc1C(F)(F)F [flunixin meglumine]", "bioavailability, %": 88.5}

---

assay: in vivo; settings: female, Yorkshire cross, pig, plasma, im, 2.2 mg/kg

{"sample.smiles": "Cc1c(Nc2ncccc2C(=O)O)cccc1C(F)(F)F", "unit.abbreviation": "ng·h/mL", "AUC(0-inf)": 6900}

---

experiment: in vivo; conditions: female, Yorkshire cross, pig, plasma, inhaled or intranasal, 2.2 mg/kg

{"sample.smiles": "Cc1c(Nc2ncccc2C(=O)O)cccc1C(F)(F)F", "CL/F [mL/min/kg]": 8.33}
